Hey, just so you know, these numbers are from paper doi:10.1101/457440v1.

- Substrate: O=C(/C=C/c1ccc(O)cc1)c1ccc(O)cc1O
- METHOD_DESCRIPTION: purified protein
Measured Km accompanies every entry in the list below.
Write the answer as a number in µM, unit excluded.

The examples below pair each entry with its known result.
# PROTEIN, METRIC, OBSERVED_VALUE
records = [
    ("MsCHI-2 (Medicago sativa; K97M) (protein) MAASITAITVENLEYPAVVTSPVTGKSYFLGGAGERGLTIEGNFIKFTAIGVYLEDIAVASLAAKWKGKSSEELLETLDFYRDIISGPFEKLIRGSMIRELSGPEYSRKVMENCVAHLKSVGTYGDAEAEAMQKFAEAFKPVNFPPGASVFYRQSPDGILGLSFSPDTSIPEKEAALIENKAVSSAVLETMIGEHAVSPDLKRCLAARLPALLNEGAFKIGN", "Km", 25.7),
    ("AtCHI-1 (Arabidopsis thaliana) (protein) MSSSNACASPSPFPAVTKLHVDSVTFVPSVKSPASSNPLFLGGAGVRGLDIQGKFVIFTVIGVYLEGNAVPSLSVKWKGKTTEELTESIPFFREIVTGAFEKFIKVTMKLPLTGQQYSEKVTENCVAIWKQLGLYTDCEAKAVEKFLEIFKEETFPPGSSILFALSPTGSLTVAFSKDDSIPETGIAVIENKLLAEAVLESIIGKNGVSPGTRLSVAERLSQLMMKNKDEKEVSDHSVEEKLAKEN", "Km", 16.8),
    ("MsCHI-2 (Medicago sativa) (protein) MAASITAITVENLEYPAVVTSPVTGKSYFLGGAGERGLTIEGNFIKFTAIGVYLEDIAVASLAAKWKGKSSEELLETLDFYRDIISGPFEKLIRGSKIRELSGPEYSRKVMENCVAHLKSVGTYGDAEAEAMQKFAEAFKPVNFPPGASVFYRQSPDGILGLSFSPDTSIPEKEAALIENKAVSSAVLETMIGEHAVSPDLKRCLAARLPALLNEGAFKIGN", "Km", 8.4),
]

Consider the additional protein presented here.
INPUT: Name the recorded Km for MsCHI-2 (Medicago sativa; G95V) (protein) MAASITAITVENLEYPAVVTSPVTGKSYFLGGAGERGLTIEGNFIKFTAIGVYLEDIAVASLAAKWKGKSSEELLETLDFYRDIISGPFEKLIRVSKIRELSGPEYSRKVMENCVAHLKSVGTYGDAEAEAMQKFAEAFKPVNFPPGASVFYRQSPDGILGLSFSPDTSIPEKEAALIENKAVSSAVLETMIGEHAVSPDLKRCLAARLPALLNEGAFKIGN .
OUTPUT: 65
